Biological target: HLA-A2.1 molecules on T2 (TAP-, HLA-A2.1+) cells (human)
Experiment: T2 cells, decay of surface peptide-HLA-A2.1 complexes, FACS
measure: DC50 (half-life of peptide-HLA-A2.1 complexes)

binder | assay.result
VLPDVFIRC (modifications not checked) [NA17-A.nt38] | > 8 h
KLTPLCVSL (modifications not checked) [K9L] | > 6 h
YMNGTMSQV (modifications not checked) [Tyrosinase.368-N] | > 8 h
YMDGTMSQV (modifications not checked) [Tyrosinase.368-D] | > 6 h
LLDTGADDTV (modifications not checked) [L10V] | < 2 h
FLWGPRALV (modifications not checked) [MAGE-3.271] | 6 h
IISAVVGIL (modifications not checked) [Her2/neu.654] | 4 h
